condition-label: in n-propanol, 303.15 K
measured-quantity: solubility (mole fraction)
Answers are plain numbers.

Which solubility (mole fraction) is listed for C=CC(=O)NC(C)(C)CS(=O)(=O)O ?
0.00764

###

condition-label: in isobutanol, 313.15 K
measured-quantity: solubility (mole fraction)
Give bare numbers.

Which solubility (mole fraction) is listed for C=CC(=O)NC(C)(C)CS(=O)(=O)O ?
0.00728

###

condition-label: in isopropanol, 298.15 K
measured-quantity: solubility (mole fraction)
Answers are plain numbers.

Which solubility (mole fraction) is listed for C=CC(=O)NC(C)(C)CS(=O)(=O)O ?
0.000882

###

condition-label: in n-propanol, 298.15 K
measured-quantity: solubility (mole fraction)
One number for each entry.

Which solubility (mole fraction) is listed for C=CC(=O)NC(C)(C)CS(=O)(=O)O ?
0.00646
